# system_under_test: PKCepsilon (Homo sapiens, UniProt Q02156)
# Sequence (Q02156 1-737): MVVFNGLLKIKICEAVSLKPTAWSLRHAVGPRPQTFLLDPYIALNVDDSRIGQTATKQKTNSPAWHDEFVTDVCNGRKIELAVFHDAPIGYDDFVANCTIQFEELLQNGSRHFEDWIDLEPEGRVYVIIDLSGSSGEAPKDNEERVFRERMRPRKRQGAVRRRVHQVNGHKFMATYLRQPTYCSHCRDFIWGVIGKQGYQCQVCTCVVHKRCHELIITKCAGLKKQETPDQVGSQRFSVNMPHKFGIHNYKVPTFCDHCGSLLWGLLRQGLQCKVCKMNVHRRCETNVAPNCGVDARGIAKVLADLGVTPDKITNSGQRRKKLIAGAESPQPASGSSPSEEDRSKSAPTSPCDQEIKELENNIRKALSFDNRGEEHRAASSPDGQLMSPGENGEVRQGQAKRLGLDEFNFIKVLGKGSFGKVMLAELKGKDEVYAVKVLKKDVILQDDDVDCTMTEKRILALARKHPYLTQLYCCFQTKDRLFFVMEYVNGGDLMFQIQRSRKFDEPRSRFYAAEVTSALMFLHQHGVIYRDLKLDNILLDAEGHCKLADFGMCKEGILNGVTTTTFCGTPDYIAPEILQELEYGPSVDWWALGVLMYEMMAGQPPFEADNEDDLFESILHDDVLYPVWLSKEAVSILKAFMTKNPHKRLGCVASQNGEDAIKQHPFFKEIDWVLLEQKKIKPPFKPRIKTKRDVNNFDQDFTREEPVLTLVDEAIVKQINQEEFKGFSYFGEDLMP
# experiment_description: biochemical
value_type: IC50 (nM)
Write it as a number; the unit nM goes unstated.

Problem: Endpoint output: IC50 of O=C(N=c1sccn1Cc1ccccc1)c1c[nH]c2ncccc12 [TRULI] . Value?
Result: 14
